- EXPERIMENT_DESCRIPTION: reducers of endogenous Her2 protein level, primary screen, SKBR3 breast tumor cells, AlphaScreen, ATP viability (AID 461);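 note: percent of carrier control wells set as 100% viability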
- SETUP_CONDITIONS: 18-24 h, measured here: SKBR3 viability, ATP luminescence, at 10 µM
Measured viability values are reported for all entries that follow.
Respond with the bare value in %.

Some compounds with known viability results, for comparison:
{"columns": ["COMPOUND", "PROPERTY", "RESULT_UNIT", "NUMERIC_RESULT"],
 "data": [
  ["CC1CCN(S(=O)(=O)c2ccc3[nH]c(=O)cc(C(=O)O)c3c2)CC1", "viability", "%", 98],
  ["C=CCOc1nc(N2CCCC2)nc(N2CCCC2)n1", "viability", "%", 89],
  ["O=C(CN(Cc1ccc2c(c1)OCO2)C(=O)CNS(=O)(=O)c1ccccc1)NCc1ccco1", "viability", "%", 97],
  ["CN(C)S(=O)(=O)N1CCN(c2cccc(Cl)c2)CC1", "viability", "%", 112],
  ["Cn1c(=O)cc(OCC(=O)N2CCN(c3cccc(C(F)(F)F)c3)CC2)c2ccccc21", "viability", "%", 89],
  ["COCCn1c(=O)[nH]c2cc(C(=O)NCc3cccnc3)ccc2c1=O", "viability", "%", 89.5],
  ["COc1ccc(N2CCN(C(c3cccc(OC)c3OC)c3nnnn3C3CCCC3)CC2)cc1 (stereo not given)", "viability", "%", 88],
  ["Cc1onc(-c2ccccc2)c1C(=O)Nc1ccnn1C1CCCCC1", "viability", "%", 99.5]
]}

Sure, the documented viability for CCOC(=O)CN1CC23C=CC(O2)C(C(=O)NC2CCCC2)C3C1=O (stereo not given) is 86.5

Sure, the documented viability for `O=C(c1ccc(COc2c(F)c(F)c(F)c(F)c2F)o1)N1CCOCC1` is 111

The reported measurements were obtained from PubChem BioAssay.
